List of pIC50 values.
# System: SUM149PT spheroids with HUVEC/MSC, viability
# experimental_protocol: Anticancer human tumor SUM149PT cell line growth inhibition [GQUAD];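 note: spheroids exposed to drugs for seven days before readout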
# condition_set: curve of first compound; second compound 0.316 µM
pIC50: −log10 of the molar value.

Guide cases for pIC50, answers given:
[[record]]
compound = "COc1ncnc(C2CC2)c1-c1ncc2cnn(Cc3ccc(-c4nc(C(F)(F)F)cn4C(C)C)cc3)c2n1 + Cc1cnc(CNC(=O)c2c(=O)c3ccc(N4CCCN(C)CC4)nc3n3c2sc2ccccc23)cn1"
endpoint_label = "pIC50"
assay_result = "> 7.50"

[[record]]
compound = "CC(C)n1c(=O)n(C)c2cnc3cc(F)c(-c4ccc(OCCCN5CCCCC5)nc4)cc3c21 + Cc1[nH]c2ccc(F)cc2c1-c1nc2c3cccnc3c3ncccc3c2[nH]1"
endpoint_label = "pIC50"
assay_result = "< 5.00"

[[record]]
compound = "O=C(c1cc(Cc2n[nH]c(=O)c3ccccc23)ccc1F)N1CCN(C(=O)C2CC2)CC1 + CN(C)c1ccc(Nc2c3ccc(NC(=O)CCN4CCCC4)cc3nc3cc(NC(=O)CCN4CCCC4)ccc23)cc1"
endpoint_label = "pIC50"
assay_result = "< 5.00"


Now consider a different compound.
Reported pIC50 for CC(=O)O[C@H]1C(=O)[C@@]2(C)[C@H]([C@H](OC(=O)c3ccccc3)[C@]3(O)C[C@H](OC(=O)[C@H](O)[C@@H](NC(=O)c4ccccc4)c4ccccc4)C(C)=C1C3(C)C)[C@]1(OC(C)=O)CO[C@@H]1C[C@@H]2O + Cc1[nH]c2ccc(F)cc2c1-c1nc2c3cccnc3c3ncccc3c2[nH]1 : what is it?
> 7.50
